- Target under test: T1, GARP-TGF-β complex (293-GARP/TGFβ stably transfected cells) (UniProt Q14392 20-662; P01137 30-390)
- T1 construct: whole, on cells; Complex of GARP and (latent) TGF-β on the cell surface; also called 293-GARP/TGFβ cell; 293F-GAPR/TGFβ/αvβ6 cells
- T1 sequence (Q14392 20-662, chain 1 of 2): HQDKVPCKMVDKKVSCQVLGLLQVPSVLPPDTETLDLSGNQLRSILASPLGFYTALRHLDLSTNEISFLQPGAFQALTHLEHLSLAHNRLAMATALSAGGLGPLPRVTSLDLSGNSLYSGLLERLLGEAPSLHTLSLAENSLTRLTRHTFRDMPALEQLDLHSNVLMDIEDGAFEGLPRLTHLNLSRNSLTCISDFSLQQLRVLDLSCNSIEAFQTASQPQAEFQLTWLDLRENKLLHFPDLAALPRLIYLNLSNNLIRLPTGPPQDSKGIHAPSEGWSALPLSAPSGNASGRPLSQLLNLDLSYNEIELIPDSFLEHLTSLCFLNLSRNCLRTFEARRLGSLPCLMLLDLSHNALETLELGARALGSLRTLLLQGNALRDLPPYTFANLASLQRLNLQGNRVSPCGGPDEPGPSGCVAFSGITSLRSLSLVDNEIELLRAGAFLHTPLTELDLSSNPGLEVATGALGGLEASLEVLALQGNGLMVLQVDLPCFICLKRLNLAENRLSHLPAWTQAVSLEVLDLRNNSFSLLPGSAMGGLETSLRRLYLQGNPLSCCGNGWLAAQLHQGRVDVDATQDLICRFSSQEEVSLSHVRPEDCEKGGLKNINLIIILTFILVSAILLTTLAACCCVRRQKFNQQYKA
- T1 sequence (P01137 30-390, chain 2 of 2): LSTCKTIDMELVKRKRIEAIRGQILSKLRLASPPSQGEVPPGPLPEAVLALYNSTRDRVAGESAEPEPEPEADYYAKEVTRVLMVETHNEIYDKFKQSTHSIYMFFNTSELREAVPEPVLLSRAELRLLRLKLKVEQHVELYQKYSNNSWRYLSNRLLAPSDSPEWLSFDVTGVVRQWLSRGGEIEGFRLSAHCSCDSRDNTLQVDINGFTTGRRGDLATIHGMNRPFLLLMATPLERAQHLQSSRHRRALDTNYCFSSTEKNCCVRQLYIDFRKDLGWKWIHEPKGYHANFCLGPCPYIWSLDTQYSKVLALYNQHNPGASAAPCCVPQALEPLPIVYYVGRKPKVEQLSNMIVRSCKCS
- Experiment description: FACS on 293-GARP/TGFβ cells
Consider the following binders and their measured pEC50 readings.
Scale for pEC50: -log10 of concentration given in mol/L; no unit attached.

antibody m202 (antibody, V domains shown) VH: QVQLQQPGTELVKPGASVKLSCKASGYTFTSYWMHWVKQRPGQGLEWIGNINPSNGDTNYNEKFKSKATLTVDKSSSTAYMQLSSLTSDDSAVYYCARATYGSYGYFDVWGTGTAVTVSS VL: DIVLTQSPASLAMSLGKRATISCRASESVTIIGTNLIQWFQQKPGQPPKLLIYHASNLETGVPARFSGSGSRTDFTLTIDPVEEDDVAIYYCLQSRQIPRTFGGGTKLEIK; 8.57

// below: pEC50 requested for another binder
Look at this binder and give its reported pEC50. antibody m107 (antibody, V domains shown) VH: QVHLQQSGAALARPGASVKMSCKASGYTFSAYTIHWVKQRPGQGLEWIGYINPSNDFAKYIQKFKDKATLTADKSSSTAYMQLNSLTSEDSAIYYCARVDYYGGSYRWYLDVWGAGTTVTVSS VL: DIVLTQSPATLSVTPGDSVSLSCRASQSISNNLHWYQQKSHESPRLLIKYTSQSISGIPSRFSGSGSGTDFTLSINSVETEDFGMYFCQQSNSWPIFTFGSGTKLEIK 8.49
